# Species on record: Homo sapiens
# Procedure text: Selectivity index, IC50 for recombinant tPA/IC50 for human uPA
Give Selectivity index for every item shown.
One number for each entry.

Cc1ccccc1C(=O)N[C@H](CO)C(=O)N[C@@H](C)C(=O)NC(Cc1ccc(NC(=N)N)cc1)P(=O)(Oc1ccccc1)Oc1ccccc1 (stereo partly drawn) = 1100

Please state Selectivity index for every compound in the list that follows.
1. C[C@H](NC(=O)[C@@H](CO)NS(=O)(=O)c1cccs1)C(=O)NC(Cc1ccc(NC(=N)N)cc1)P(=O)(Oc1ccccc1)Oc1ccccc1 (stereo partly drawn)
2. Cc1ccc(C(=O)N[C@H](CO)C(=O)N[C@@H](C)C(=O)NC(Cc2ccc(NC(=N)N)cc2)P(=O)(Oc2ccccc2)Oc2ccccc2)cc1 (stereo partly drawn)
3. C[C@H](NC(=O)[C@@H](CO)NC(=O)C1C2CC3CC(C2)CC1C3)C(=O)NC(Cc1ccc(NC(=N)N)cc1)P(=O)(Oc1ccccc1)Oc1ccccc1 (stereo partly drawn)
4. C[C@H](NC(=O)[C@@H](CO)NC(=O)c1ccccc1)C(=O)NC(Cc1ccc(NC(=N)N)cc1)P(=O)(Oc1ccccc1)Oc1ccccc1 (stereo partly drawn)

Result:
1. 2300
2. 2300
3. 1000
4. 3000

Dear colleague, could you please provide Selectivity index for the compounds listed below?
1. C[C@H](NC(=O)[C@@H](CO)NS(=O)(=O)c1cccc2ccccc12)C(=O)NC(Cc1ccc(NC(=N)N)cc1)P(=O)(Oc1ccccc1)Oc1ccccc1 (stereo partly drawn)
2. C[C@H](NC(=O)[C@@H](CO)NS(=O)(=O)c1ccc(C#N)cc1)C(=O)NC(Cc1ccc(NC(=N)N)cc1)P(=O)(Oc1ccccc1)Oc1ccccc1 (stereo partly drawn)
3. COc1ccc(S(=O)(=O)N[C@H](CO)C(=O)N[C@@H](C)C(=O)NC(Cc2ccc(NC(=N)N)cc2)P(=O)(Oc2ccccc2)Oc2ccccc2)cc1 (stereo partly drawn)
4. CC(=O)Nc1ccc(OP(=O)(Oc2ccc(NC(C)=O)cc2)C(Cc2ccc(NC(=N)N)cc2)NC(=O)[C@H](C)NC(=O)[C@@H](CO)NC(=O)OCc2ccccc2)cc1 (stereo partly drawn)
5. Cc1cccc(C)c1C(=O)N[C@H](CO)C(=O)N[C@@H](C)C(=O)NC(Cc1ccc(NC(=N)N)cc1)P(=O)(Oc1ccccc1)Oc1ccccc1 (stereo partly drawn)

Result:
[760, 1100, 740, 1000, 600]

# per-item lookup of Selectivity index; items listed below
1. Cc1cccc(C(=O)N[C@H](CO)C(=O)N[C@@H](C)C(=O)NC(Cc2ccc(NC(=N)N)cc2)P(=O)(Oc2ccccc2)Oc2ccccc2)c1 (stereo partly drawn)
2. C[C@H](NC(=O)[C@@H](CO)NS(=O)(=O)Cc1ccccc1)C(=O)NC(Cc1ccc(NC(=N)N)cc1)P(=O)(Oc1ccccc1)Oc1ccccc1 (stereo partly drawn)

Result:
1. 4000
2. 80

Request: Return Selectivity index (reported value) for this compound: C[C@H](NC(=O)[C@@H](CO)NC(=O)c1cccs1)C(=O)NC(Cc1ccc(NC(=N)N)cc1)P(=O)(Oc1ccccc1)Oc1ccccc1 (stereo partly drawn)
Result: 1900
